Test system: 485368-065-R4-J2-PDC spheroids with HUVEC/MSC, viability;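 further: spheroids exposed to compounds for seven days; 100% = DMSO vehicle control wells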
Assay: Anticancer human tumor 485368-065-R4-J2-PDC patient-derived pancreatic carcinoma cell line growth inhibition [CLK]
Details: second compound 0.0316 µM; first compound 1 µM; stronger effect = lower value
parameter: viability, T/C (%)
One number for each entry, in %.

CC(CO)NC(=O)c1cc(-c2ccc(Cl)cc2)nn(-c2cnn(C)c2)c1=O (stereo not drawn) + CNC(=O)c1ccc(Nc2nc(OC3CCCC3)c3c(-c4ccc5nc(C)oc5c4)c[nH]c3n2)c(OC)c1 = 101
C=C(F)C(=O)N1CCN(c2nc(OCC3CCCN3C)nc3c2CCN(c2cccc4cccc(Cl)c24)C3)CC1CC#N (stereo not drawn) + CNC(=O)c1ccc(Nc2nc(OC3CCCC3)c3c(-c4ccc5nc(C)oc5c4)c[nH]c3n2)c(OC)c1 = 101

Now turn to the next molecule.
# viability, T/C of CC(CO)NC(=O)c1cc(-c2ccc(Cl)cc2)nn(-c2cnn(C)c2)c1=O (stereo not drawn) + CN1CCN(c2cc(C(=O)Nc3cc4cc(-c5cnn(C)c5)ccc4cn3)ccn2)CC1 = 105

Cited source for all entries: PubChem BioAssay AID2060617
